The reported numbers originate from paper PMC4077652.

# target under test: HLA-DRβ1*04:01 (DR4) (Homo sapiens, UniProt P01903+P01911, A100K/A169T/F76Y/I96L/K127E/L162R/M171V/N62H/P40V/Q125Y/R42H/S133A/S149N/S66Y/V115G/V209L/W38E)
# experiment notes: biochemical
# Format: binding
# measurement conditions: Kd (nM) DM-
Where no end group is shown, it is not given here.
measurement name: Kd
Answers without a unit are incomplete; give the number and then its unit.

## Task State, in one line, measured Kd of QNSYSTEWSPCSVT [QNT-Y]
## Result 25.5 nM

###

# target under test: HLA-DRβ1*04:01 (DR4) (Homo sapiens, UniProt P01903+P01911, A100K/A169T/F76Y/I96L/K127E/L162R/M171V/N62H/P40V/Q125Y/R42H/S133A/S149N/S66Y/V115G/V209L/W38E)
# experiment notes: biochemical
# Type: binding
We begin with a simple list: items and their reported IC50.
Report as a plain number; the unit µM is understood.

Sample answers from the record:
>>> measured("Ac-QNSLATEWSPCSVT-NH2 [S336A]")
0.91
>>> measured("Ac-ANSLSTEWSPCSVT-NH2 [Q332A]")
1.19
>>> measured("Ac-QNSLSTEWSPCAVT-NH2 [S343A]")
0.7
>>> measured("Ac-QNALSTEWSPCSVT-NH2 [S334A]")
1.14
>>> measured("Ac-QNSLSTEWSPCSAT-NH2 [V344A]")
0.44

## Task Give me measured IC50, please, for this substance: Ac-SLSTEWSPCSVT-NH2 [QN-334-345]
## Result 2.82

## Task For the substance Ac-QNSLSTAWSPCSVT-NH2 [E338A] , give its measured IC50 value.
## Result 3.4

## Task Provide IC50 value for the following substance: Ac-QASLSTEWSPCSVT-NH2 [N333A]
## Result 2.65

## Task Complete the entry with IC50 for Ac-LSTEWSPCS-NH2 [QN-335-343]
## Result 75.8

## Task Return reported IC50. Input substance: Ac-QNSLSTEWSPASVT-NH2 [C342A]
## Result 0.73

## Task Tell me IC50 reported for Ac-QNSLSTEWAPCSVT-NH2 [S340A]
## Result 24.6
